These measurements were taken from PubChem BioAssay AID720549.

- TARGET OF ASSAY: RecQ-like DNA helicase BLM (Homo sapiens)
- EXPERIMENT SUMMARY: qHTS for Inhibitors of Bloom's syndrome helicase (BLM): Helicase ATPase Orthogonal Confirmatory Assay for SAR
- SETTINGS: purified BLM helicase ATPase activity assay; series mostly up to 57.1 µM
Records with an inconclusive call do not appear. The source made the active and inactive calls. Calls come from the whole dose curve; as a rule, active = well fitted inhibition curve with a large enough effect; inconclusive = small, poorly fitted or top-dose-only effect; inactive = flat fitted curve, though single readings scatter.
The categories you may choose from are active, inactive

O=C(Nc1ccc(Cl)c([N+](=O)[O-])c1)Nc1nnc(-c2ccncc2)s1: active

Task item: Dear all, I need the recorded test outcome for `O=C(Nc1nnc(-c2ccncc2)s1)Oc1ccc2ccccc2c1` , thank you.
Reply: active

====

- TARGET OF ASSAY: RecQ-like DNA helicase BLM (Homo sapiens) (UniProt P54132)
- Sequence (P54132 whole entry, looked up): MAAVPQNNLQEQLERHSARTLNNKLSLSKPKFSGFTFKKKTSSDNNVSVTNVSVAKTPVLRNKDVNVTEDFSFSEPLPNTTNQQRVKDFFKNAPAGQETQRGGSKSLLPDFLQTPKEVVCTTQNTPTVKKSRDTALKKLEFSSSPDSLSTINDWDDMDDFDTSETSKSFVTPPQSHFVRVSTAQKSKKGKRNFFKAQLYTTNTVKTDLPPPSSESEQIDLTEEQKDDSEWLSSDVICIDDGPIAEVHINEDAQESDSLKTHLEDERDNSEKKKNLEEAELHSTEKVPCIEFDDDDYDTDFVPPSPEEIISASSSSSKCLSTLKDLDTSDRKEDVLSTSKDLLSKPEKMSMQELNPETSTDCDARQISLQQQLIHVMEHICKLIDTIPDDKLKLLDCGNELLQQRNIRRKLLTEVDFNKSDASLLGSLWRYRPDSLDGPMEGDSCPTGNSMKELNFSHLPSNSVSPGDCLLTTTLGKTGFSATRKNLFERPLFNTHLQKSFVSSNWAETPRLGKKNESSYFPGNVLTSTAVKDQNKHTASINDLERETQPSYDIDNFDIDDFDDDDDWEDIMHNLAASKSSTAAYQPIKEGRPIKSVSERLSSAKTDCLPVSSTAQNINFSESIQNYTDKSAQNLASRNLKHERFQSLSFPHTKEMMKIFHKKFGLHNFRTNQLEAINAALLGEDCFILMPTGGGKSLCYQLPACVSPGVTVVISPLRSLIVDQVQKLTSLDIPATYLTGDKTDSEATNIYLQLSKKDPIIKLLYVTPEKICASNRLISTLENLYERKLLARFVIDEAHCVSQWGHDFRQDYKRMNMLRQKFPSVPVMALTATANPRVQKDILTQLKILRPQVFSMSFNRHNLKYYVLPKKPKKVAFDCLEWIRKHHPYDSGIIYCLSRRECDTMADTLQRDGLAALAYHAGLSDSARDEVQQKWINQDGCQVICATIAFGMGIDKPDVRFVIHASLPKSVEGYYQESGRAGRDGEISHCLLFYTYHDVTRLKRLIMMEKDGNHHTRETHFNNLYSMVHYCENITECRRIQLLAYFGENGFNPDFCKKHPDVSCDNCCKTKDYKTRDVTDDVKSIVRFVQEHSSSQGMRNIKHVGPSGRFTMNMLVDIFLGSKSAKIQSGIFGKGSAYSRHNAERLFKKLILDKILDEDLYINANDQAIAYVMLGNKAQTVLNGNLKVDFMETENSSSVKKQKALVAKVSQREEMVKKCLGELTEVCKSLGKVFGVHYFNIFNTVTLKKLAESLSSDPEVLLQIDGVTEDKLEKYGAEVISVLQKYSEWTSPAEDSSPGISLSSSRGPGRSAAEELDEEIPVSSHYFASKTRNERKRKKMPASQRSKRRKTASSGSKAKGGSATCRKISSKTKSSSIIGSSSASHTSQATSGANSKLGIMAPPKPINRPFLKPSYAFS
- EXPERIMENT SUMMARY: qHTS for Inhibitors of Bloom's syndrome helicase (BLM): Helicase ATPase Orthogonal Confirmatory Assay for SAR
- SETTINGS: purified BLM helicase ATPase activity assay; series mostly up to 57.1 µM
Inconclusive results are not listed. Calls of active or inactive are those of the source. Calls follow the shape of the dose curve; as a rule, active = well fitted inhibition curve with a large enough effect; inconclusive = small, poorly fitted or top-dose-only effect; inactive = flat fitted curve, though single readings scatter.
The categories you may choose from are y (active), n (inactive)

Reference set (3 entries):
COc1ccc(-c2nnc(NC(=O)Nc3ccc4ccccc4c3)s2)cc1OC: n
O=C(Nc1ccc2ccccc2c1)Nc1nnc(-c2ccc(Cl)cc2)s1: n
N#Cc1cc(NC(=O)Nc2nnc(-c3ccncc3)s2)ccc1-c1ccc[nH]1: y

Task item: Dear all, I need the recorded test outcome for `CCOc1ccc(NC(=O)Nc2ccc(-c3nc4ccccc4[nH]3)cc2)cc1` , thank you.
Reply: n

Task item: Dear all, I need the recorded test outcome for `O=C(Nc1ccc(Cl)c(Cl)c1)Nc1nnc(-c2ccc(F)cc2)s1` , thank you.
Reply: n

Task item: Dear all, I need the recorded test outcome for `O=C(Nc1cc(C(F)(F)F)cc(C(F)(F)F)c1)Nc1nnc(-c2ccncc2)s1` , thank you.
Reply: n

Task item: Dear all, I need the recorded test outcome for `Nc1ccc(NC(=O)Nc2nnc(-c3ccncc3)s2)cc1C(F)(F)F` , thank you.
Reply: n

Task item: Dear all, I need the recorded test outcome for `Cc1cc(NC(=O)Nc2nnc(-c3ccncc3)s2)ccc1F` , thank you.
Reply: n

Task item: Dear all, I need the recorded test outcome for `CC(=O)c1ccc(NC(=O)Nc2nnc(-c3ccncc3)s2)cc1` , thank you.
Reply: n

Task item: Dear all, I need the recorded test outcome for `O=C(Nc1ccc2ccccc2c1)Nc1nnc(-c2ccccn2)s1` , thank you.
Reply: n

Task item: Dear all, I need the recorded test outcome for `O=C(Nc1ccc2ccccc2c1)Nc1nnc(-c2ccccc2Cl)s1` , thank you.
Reply: n
